Assay: Lipophilicity, log D of the compound at pH 7.4
Assay type: physicochemical
Details: buffer
Readout Kind: logD
Number, no unit, nothing else.

Quick check: logD of `C#Cc1ccnc(C#Cc2ccc3ncn(-c4ccnc(N)n4)c3c2)n1` ? 2.8

----------
Target: Mitogen-activated protein kinase kinase kinase 14 (Homo sapiens, UniProt Q99558, S549D)
Sequence (Q99558 whole entry S549D, the tested form may be a part): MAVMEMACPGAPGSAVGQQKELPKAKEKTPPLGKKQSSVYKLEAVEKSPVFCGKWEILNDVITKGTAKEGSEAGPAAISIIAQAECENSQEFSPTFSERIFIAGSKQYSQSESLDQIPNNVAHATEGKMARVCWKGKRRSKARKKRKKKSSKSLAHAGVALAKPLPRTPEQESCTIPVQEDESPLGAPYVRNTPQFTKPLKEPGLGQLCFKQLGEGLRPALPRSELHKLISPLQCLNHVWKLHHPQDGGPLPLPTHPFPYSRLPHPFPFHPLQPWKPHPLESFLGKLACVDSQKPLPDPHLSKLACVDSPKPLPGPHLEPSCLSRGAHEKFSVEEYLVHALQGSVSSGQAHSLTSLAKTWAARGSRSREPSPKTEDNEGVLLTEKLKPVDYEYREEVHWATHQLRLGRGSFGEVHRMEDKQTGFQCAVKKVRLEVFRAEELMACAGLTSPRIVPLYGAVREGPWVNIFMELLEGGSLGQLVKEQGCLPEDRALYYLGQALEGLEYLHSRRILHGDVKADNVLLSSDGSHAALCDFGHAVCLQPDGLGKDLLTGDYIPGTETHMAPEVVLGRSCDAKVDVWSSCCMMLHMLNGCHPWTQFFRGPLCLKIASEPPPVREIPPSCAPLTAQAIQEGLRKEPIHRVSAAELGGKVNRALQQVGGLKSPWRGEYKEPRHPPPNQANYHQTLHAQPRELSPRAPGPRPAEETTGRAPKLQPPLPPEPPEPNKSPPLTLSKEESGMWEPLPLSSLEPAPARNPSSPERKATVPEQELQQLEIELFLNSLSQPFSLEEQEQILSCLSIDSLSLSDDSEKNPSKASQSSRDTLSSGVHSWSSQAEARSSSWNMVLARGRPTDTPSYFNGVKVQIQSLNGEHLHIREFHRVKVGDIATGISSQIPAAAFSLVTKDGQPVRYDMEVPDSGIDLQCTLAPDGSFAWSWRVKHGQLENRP
Experiment: Inhibition of His6-tagged human NIK (330 to 680 residues) S549D mutant expressed in baculovirus-infected Sf9 cells incubated for 30 mins in presence of ATP by ADP-GloTM assay
Binarize IC50 at 2 µM; below is true, at or above is false.

# check: IC50 < 2 µM for CC(O)(C#Cc1ccc2c(c1)N(c1nc(N)ncc1Cl)CC2)c1nccs1 (stereo unspecified) true

# check: IC50 < 2 µM for `C=Cc1ccnc(C#Cc2ccc3ncn(-c4ccnc(N)n4)c3c2)n1` true

# check: IC50 < 2 µM for `C=CC(=O)NCCCCc1ccc2ncn(-c3ccnc(N)n3)c2c1` false

# check: IC50 < 2 µM for `C=Cc1ccnc(C#Cc2ccc3ncn(-c4ccnc(N)n4)c3c2)c1` true

# check: IC50 < 2 µM for `Cc1ccnc(C#Cc2ccc3ncn(-c4ccnc(N)n4)c3c2)n1` true

# check: IC50 < 2 µM for `C#Cc1nccc(C#Cc2ccc3ncn(-c4ccnc(N)n4)c3c2)n1` false

# check: IC50 < 2 µM for `C#Cc1ccc2ncn(-c3ccnc(N)n3)c2c1` true

# check: IC50 < 2 µM for `C#Cc1cccc(C#Cc2ccc3ncn(-c4ccnc(N)n4)c3c2)n1` false

# check: IC50 < 2 µM for `CC(=O)NCCCCc1ccc2ncn(-c3ccnc(N)n3)c2c1` false

# check: IC50 < 2 µM for `C=Cc1nccc(C#Cc2ccc3ncn(-c4ccnc(N)n4)c3c2)n1` false

# check: IC50 < 2 µM for `CC(=O)NCCCc1ccc2ncn(-c3ccnc(N)n3)c2c1` false

----------
Assay: Intrinsic clearance in rat hepatocytes measured per million of cells
Type: ADME, cell-based, Hepatocyte
Details: read-out: CLH
Readout Kind: hepatocyte CLint

Quick check: hepatocyte CLint of `C#Cc1ccnc(C#Cc2ccc3ncn(-c4ccnc(N)n4)c3c2)n1` ? 915 µL/min/1e6 cells

----------
Molecular target: Mitogen-activated protein kinase kinase kinase 14 (Homo sapiens, UniProt Q99558, S549D)
Assay: Inhibition of His6-tagged human NIK (330 to 680 residues) S549D mutant expressed in baculovirus-infected Sf9 cells incubated for 30 mins in presence of ATP by ADP-GloTM assay
pIC50: −log10 of the molar value.
The label depends only on pIC50: met if it is at least 5, not met if it is smaller.

pIC50 >= 5 for `C#Cc1cc(C#Cc2ccc3ncn(-c4ccnc(N)n4)c3c2)ncn1` ? not met

pIC50 >= 5 for `C#Cc1cc(C#Cc2ccc3ncn(-c4ccnc(N)n4)c3c2)ccn1` ? not met

pIC50 >= 5 for `C=CC(=O)NCC#Cc1ccc2ncn(-c3ccnc(N)n3)c2c1` ? met

pIC50 >= 5 for `C=Cc1cc(C#Cc2ccc3ncn(-c4ccnc(N)n4)c3c2)ccn1` ? not met

pIC50 >= 5 for `C#Cc1ccnc(C#Cc2ccc3ncn(-c4ccnc(N)n4)c3c2)c1` ? met

pIC50 >= 5 for `C#Cc1ccnc(C#Cc2ccc3ncn(-c4ccnc(N)n4)c3c2)n1` ? met

pIC50 >= 5 for `C#Cc1cncc(C#Cc2ccc3ncn(-c4ccnc(N)n4)c3c2)n1` ? met

pIC50 >= 5 for `C#Cc1cnc(C#Cc2ccc3ncn(-c4ccnc(N)n4)c3c2)nc1` ? not met
